- test.method.notes: refractive index (Na D-line) (dimensionless)
- conditions.used: 293 K; 96.15 kPa; Liquid; Standard Abbe refractometry
parameter.measured: refractive index
Give bare numbers.

- CC(=O)O: 1.3724
- Nc1ccccc1: 1.5868

Give refractive index for each listed item.
1. CN(C)C=O [dimethylformamide]
2. CC(C)=O
3. CC(C)O
4. COc1ccccc1

[1.4318, 1.3606, 1.3758, 1.5175]
